experiment: protein stability index of a GFP-peptide fusion (GPS, HEK-293T) (PSI 1-6); higher = more stable; conditions: treatment: DMSO; c terminus: a fixed tail appended;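 also: 24-mer peptide tiles fused after GFP, lentivirally expressed, FACS-sorted into six equal bins by GFP/DsRed ratio, decoded by Illumina sequencing, PSI is the read-weighted mean bin number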
Response key: 1 means protein stability index >= 3; 0 means protein stability index < 3.

Prompt line: Does the reported protein stability index for AALIEAIQDRLSNTLQTYIRCRHP [VDR] fall at or above the 3 mark?
Response line: 0

Prompt line: Does the reported protein stability index for HGNQSAGEDQAFGDWLLTANGSEI [SLC22A15] fall at or above the 3 mark?
Response line: 1

Prompt line: Does the reported protein stability index for GLSAPHSRQIPAPQGAVLVQREKD [KISS1] fall at or above the 3 mark?
Response line: 1

Prompt line: Does the reported protein stability index for IDVEALQVAFGSLYRDDVLIKPSR [GMCL1] fall at or above the 3 mark?
Response line: 0

Prompt line: Does the reported protein stability index for KGFSHLDVMLVECYDPKGDQWNIL [KLHL14] fall at or above the 3 mark?
Response line: 0

Prompt line: Does the reported protein stability index for HHGGDYKHWREWGSHAQTSQIQSI [CRYBA1] fall at or above the 3 mark?
Response line: 1

Prompt line: Does the reported protein stability index for FKLTNKNSDRMTHCGVLEFVADEG [UFD1] fall at or above the 3 mark?
Response line: 1

Prompt line: Does the reported protein stability index for FRKVKQMHLNFMDEKDRIITAFYN [DNAJC4] fall at or above the 3 mark?
Response line: 0

Prompt line: Does the reported protein stability index for NMQQPMNVMTQSFGAVNLSSPSNM [CLINT1] fall at or above the 3 mark?
Response line: 1

Prompt line: Does the reported protein stability index for CCEFLKRQLDPSNCLGIRAFADTH [KLHL20] fall at or above the 3 mark?
Response line: 0

Prompt line: Does the reported protein stability index for DKCSAPKIWRTPNGKTIEMDTQFT [IQUB] fall at or above the 3 mark?
Response line: 1

Prompt line: Does the reported protein stability index for EDDGLQSAFTAAHELGHVFNMLHD [ADAMTS4] fall at or above the 3 mark?
Response line: 1

Prompt line: Does the reported protein stability index for AALPPVPSPPAAPSVADNLLASSD [SERTAD1] fall at or above the 3 mark?
Response line: 1

Prompt line: Does the reported protein stability index for KIKRLRSQVQVSLEDYINDRQYDS [HNF4A] fall at or above the 3 mark?
Response line: 1

Prompt line: Does the reported protein stability index for AQAAAAESDSRKVAEETPDGAPAL [PRKX] fall at or above the 3 mark?
Response line: 1

Prompt line: Does the reported protein stability index for RPGGGRVKIESVKLDFKEKAQAKV [MAP2] fall at or above the 3 mark?
Response line: 1

Prompt line: Does the reported protein stability index for SSSDSDFDDEEPRKFYVHIKPAPA [FCHO1] fall at or above the 3 mark?
Response line: 1

Prompt line: Does the reported protein stability index for "LRASGSLCGPHAKAPYLCEATHEP" fall at or above the 3 mark?
Response line: 0

Prompt line: Does the reported protein stability index for PAPASPAISVVGVSAGGHTLSRPP [TFE3] fall at or above the 3 mark?
Response line: 1

Prompt line: Does the reported protein stability index for QCGPQTGLQSPGTLQPPEFLYSHG [TBX5] fall at or above the 3 mark?
Response line: 1

Prompt line: Does the reported protein stability index for QKISLLHSCTCVLYTPSNEHFGIV [ALG2] fall at or above the 3 mark?
Response line: 0

Prompt line: Does the reported protein stability index for SAGIAKLEEGDELQLAIPRENAQI [TNFSF13B] fall at or above the 3 mark?
Response line: 1

Prompt line: Does the reported protein stability index for ISDNSISWSAGLHNRYTENSLRGV [FUT8] fall at or above the 3 mark?
Response line: 0
